Could you please report measured IC50 at 24 h for the items listed next?
test.method.notes: in vitro
measurement.context: human, HEK293T cells
Description: Cytotoxicity against HEK293T cells assessed as inhibition of cell growth incubated for 24 hrs by CCK-8 assay
Just the number in µM, nothing appended.

Entry COC(=O)[C@H](CS[C@H](CC=C(C)C)C1=CC(=O)c2c(O)ccc(O)c2C1=O)NC(=O)CCCC[C@@H]1CCSC(c2ccc(Br)cc2)S1 (stereo partly drawn) has what IC50 at 24 h?
88.8

Entry COC(=O)[C@H](CS[C@H](CC=C(C)C)C1=CC(=O)c2c(O)ccc(O)c2C1=O)NC(=O)CCCC[C@@H]1CCSC(c2ccc(Cl)cc2)S1 (stereo partly drawn) has what IC50 at 24 h?
86

Entry COC(=O)[C@H](CS[C@H](CC=C(C)C)C1=CC(=O)c2c(O)ccc(O)c2C1=O)NC(=O)CCCC[C@@H]1CCSC(c2ccc(C)cc2)S1 (stereo partly drawn) has what IC50 at 24 h?
80.4

Entry CC(C)=CC[C@@H](O)C1=CC(=O)c2c(O)ccc(O)c2C1=O [SHIKONIN] has what IC50 at 24 h?
2.63

Entry COC(=O)[C@H](CS[C@H](CC=C(C)C)C1=CC(=O)c2c(O)ccc(O)c2C1=O)NC(=O)CCCC[C@@H]1CCSC(c2ccc(OCc3ccccc3)cc2)S1 (stereo partly drawn) has what IC50 at 24 h?
88.7

Entry COC(=O)[C@H](CS[C@H](CC=C(C)C)C1=CC(=O)c2c(O)ccc(O)c2C1=O)NC(=O)CCCC[C@@H]1CCSC(c2ccccc2Cl)S1 (stereo partly drawn) has what IC50 at 24 h?
84.5

Entry COC(=O)[C@H](CS[C@H](CC=C(C)C)C1=CC(=O)c2c(O)ccc(O)c2C1=O)NC(=O)CCCC[C@@H]1CCSC(c2ccc(C(C)C)cc2)S1 (stereo partly drawn) has what IC50 at 24 h?
77.5

Entry COC(=O)[C@H](CS[C@H](CC=C(C)C)C1=CC(=O)c2c(O)ccc(O)c2C1=O)NC(=O)CCCC[C@@H]1CCSC(c2ccc(C(F)(F)F)cc2)S1 (stereo partly drawn) has what IC50 at 24 h?
84.9

Entry COC(=O)[C@H](CS[C@H](CC=C(C)C)C1=CC(=O)c2c(O)ccc(O)c2C1=O)NC(=O)CCCC[C@@H]1CCSC(c2ccc([N+](=O)[O-])cc2)S1 (stereo partly drawn) has what IC50 at 24 h?
94.2

Entry COC(=O)[C@H](CS[C@H](CC=C(C)C)C1=CC(=O)c2c(O)ccc(O)c2C1=O)NC(=O)CCCC[C@@H]1CCSC(C2CCCCC2)S1 (stereo partly drawn) has what IC50 at 24 h?
86.1

Entry COC(=O)[C@H](CS[C@H](CC=C(C)C)C1=CC(=O)c2c(O)ccc(O)c2C1=O)NC(=O)CCCC[C@@H]1CCSC(c2ccccc2C)S1 (stereo partly drawn) has what IC50 at 24 h?
99.5

Entry COC(=O)[C@H](CS[C@H](CC=C(C)C)C1=CC(=O)c2c(O)ccc(O)c2C1=O)NC(=O)CCCC[C@@H]1CCSC(c2ccccc2)S1 (stereo partly drawn) has what IC50 at 24 h?
95.5

Entry COC(=O)[C@H](CS[C@H](CC=C(C)C)C1=CC(=O)c2c(O)ccc(O)c2C1=O)NC(=O)CCCC[C@@H]1CCSC(c2ccc(OC)cc2)S1 (stereo partly drawn) has what IC50 at 24 h?
86.2
